Can you tell me inhibition at 1 µM for the items I'm about to list?
biological target: human VR1 (Homo sapiens, UniProt Q8NER1); construct: expressed in transfected cells; host or cells: HEK293; assay: Human VR1 [3H] RTX binding assay; conditions: 3H-RTX binding; compound at 1 μM
Sequence (Q8NER1 whole entry): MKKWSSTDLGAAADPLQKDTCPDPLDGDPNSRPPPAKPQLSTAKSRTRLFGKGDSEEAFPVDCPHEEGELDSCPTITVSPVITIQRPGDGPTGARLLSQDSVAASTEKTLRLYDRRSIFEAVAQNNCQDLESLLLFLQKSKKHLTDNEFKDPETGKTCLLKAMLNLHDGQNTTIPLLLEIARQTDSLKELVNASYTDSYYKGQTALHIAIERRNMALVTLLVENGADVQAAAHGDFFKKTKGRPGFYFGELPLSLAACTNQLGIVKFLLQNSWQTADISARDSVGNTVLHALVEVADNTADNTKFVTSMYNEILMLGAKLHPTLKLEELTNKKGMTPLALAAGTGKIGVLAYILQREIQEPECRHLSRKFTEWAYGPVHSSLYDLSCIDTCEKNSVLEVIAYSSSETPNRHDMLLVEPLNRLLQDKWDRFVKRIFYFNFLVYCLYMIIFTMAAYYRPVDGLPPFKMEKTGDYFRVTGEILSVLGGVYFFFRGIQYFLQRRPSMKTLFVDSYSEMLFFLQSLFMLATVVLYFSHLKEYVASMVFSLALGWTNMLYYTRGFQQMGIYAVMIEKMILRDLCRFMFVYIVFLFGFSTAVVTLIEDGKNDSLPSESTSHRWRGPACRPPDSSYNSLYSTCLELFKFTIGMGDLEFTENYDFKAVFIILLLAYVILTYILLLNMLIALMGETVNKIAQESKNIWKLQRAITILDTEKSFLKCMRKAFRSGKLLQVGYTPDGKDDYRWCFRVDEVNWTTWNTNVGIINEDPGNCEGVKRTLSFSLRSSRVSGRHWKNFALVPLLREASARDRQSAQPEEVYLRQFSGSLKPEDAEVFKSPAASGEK
Numeric only. Scale: %

Which inhibition at 1 µM is reported for this compound? CCC(C)(C)c1cc(OC)c(CCC(=O)Nc2cnc3ccccc3c2)c(OC)c1
93

Which inhibition at 1 µM is reported for this compound? O=C(Nc1cnc2ccccc2c1)c1ccc2c(c1)CCN2C(=O)c1ccccc1
3

Which inhibition at 1 µM is reported for this compound? CCCCCc1ccc(C(=O)Nc2cnc3ccccc3c2)s1
57

Which inhibition at 1 µM is reported for this compound? CN1CCCc2cc(C(=O)Nc3cnc4ccccc4c3)ccc21
79

* * *

Can you tell me IC50 for the items I'm about to list?
biological target: human VR1 (Homo sapiens); construct: expressed in transfected cells; host or cells: HEK293; test: Human VR1 functional assay (intracellular Ca++, FLIPR, capsaicin challenge); type: cell-based; details: hVR1, capsaicin challenge, read-out: FLIPR functional assay IC50 hVR1
Numeric only. Scale: nM

Which IC50 is reported for this compound? O=C(Nc1cnc2ccccc2c1)c1ccc(NC2CCCC2)cc1
3200

Which IC50 is reported for this compound? O=C(Nc1cnc2ccccc2c1)c1ccc(N2CCCCCCCC2)cc1 [4-Azonan-1-yl-N-quinolin-3-yl-benzamide]
92

Which IC50 is reported for this compound? CCCCCN(C)c1ccc(C(=O)Nc2cnc3ccccc3c2)cn1
400

Which IC50 is reported for this compound? CC(C)n1c(C(F)(F)F)nc2cc(C(=O)Nc3cnc4ccccc4c3)ccc21
8000

Which IC50 is reported for this compound? CCCCCN(C)c1ccc(C(=O)Nc2cnc3ccccc3c2)cc1C
54

Which IC50 is reported for this compound? CCCCCNc1ccc(C(=O)Nc2cnc3ccccc3c2)c(Cl)c1
10000

Which IC50 is reported for this compound? CCC=CCCCN(C)c1ccc(C(=O)Nc2cnc3ccccc3c2)cc1
1900

Which IC50 is reported for this compound? CC1CN(c2ccc(C(=O)Nc3cnc4ccccc4c3)cc2)CC(C)O1 (centres unmarked)
10000

Which IC50 is reported for this compound? CC1(C)CCC(C)(C)c2cc(C=CC(=O)Nc3cnc4ccccc4c3Cl)ccc21
30

Which IC50 is reported for this compound? CC(C)(c1ccc(CCC(=O)Nc2cnc3ccccc3c2)cc1)C1CCCCC1
570

Which IC50 is reported for this compound? CCCC1CCN(c2ccc(C(=O)Nc3cnc4ccccc4c3)cc2)CC1
16000

* * *

Can you tell me IC50 for the items I'm about to list?
target: human VR1 (Homo sapiens, UniProt Q8NER1); construct: expressed in transfected cells; host or cells: HEK293; experiment: Human VR1 functional assay (intracellular Ca++, FLIPR, capsaicin challenge); assay type: cell-based; settings: hVR1, capsaicin challenge, read-out: FLIPR functional assay IC50 hVR1
Numeric only. Scale: nM

Which IC50 is reported for this compound? CCCCN(C)c1ccc(C(=O)Nc2cnc3ccccc3c2)cc1
786

Which IC50 is reported for this compound? O=C(Nc1cnc2ccccc2c1)c1ccc(N2CCN(C(=O)Cc3ccccc3)CC2)cc1
10000

Which IC50 is reported for this compound? CN(c1ccc(C(=O)Nc2cnc3ccccc3c2)cc1)C1CCCCCC1
400

Which IC50 is reported for this compound? CCCCCc1ccc(C(=O)Nc2cnc3ccccc3c2)s1
900

Which IC50 is reported for this compound? CC1(C)CCC(C)(C)c2cc(C=CC(=O)Nc3cnc4ccccc4c3)ccc21
65

Which IC50 is reported for this compound? O=C(Nc1cnc2ccccc2c1)c1ccc(N2CCNCC2)cc1
740

Which IC50 is reported for this compound? CCN(c1ccc(C(=O)Nc2cnc3ccccc3c2)cc1)C1CCCCC1
300

* * *

target: human VR1 (Homo sapiens); construct: expressed in transfected cells; host or cells: HEK293; assay: Human VR1 [3H] RTX binding assay; details: 3H-RTX binding; hVR1; read-out: 3H-RTX binding assay Ki hVR1
Can you tell me Ki for the items I'm about to list?
Numeric only. Scale: nM

# value lookup — system human VR1 (Homo sapiens), readout Ki, item CCCCC1CCC(C(=O)Nc2cnc3ccccc3c2)CC1 (stereo not shown)
124

# value lookup — system human VR1 (Homo sapiens), readout Ki, item CN(CC1CCCCC1)c1ccc(CCC(=O)Nc2cnc3ccccc3c2)cc1
81.5

# value lookup — system human VR1 (Homo sapiens), readout Ki, item CCCN(CCc1ccccc1)c1ccc(C(=O)Nc2cnc3ccccc3c2)cc1
71.6

# value lookup — system human VR1 (Homo sapiens), readout Ki, item O=C(CCc1ccc2c(c1)CCC2)Nc1cnc2ccccc2c1
158

* * *

Can you tell me pKi for the items I'm about to list?
molecular target: human VR1 (Homo sapiens, UniProt Q8NER1); construct: expressed in transfected cells; host or cells: HEK293; experiment: Human VR1 [3H] RTX binding assay; settings: 3H-RTX binding; hVR1; read-out: 3H-RTX binding assay Ki hVR1
Friendly reminder that pKi comes from taking -log10 of the concentration in mol/L.

Which pKi is reported for this compound? CCCCCN(C)c1ccc(C(=O)Nc2cnc3ccccc3c2)cn1
6.91

Which pKi is reported for this compound? CCCCCN(CCCCC)c1ccc(CCC(=O)Nc2cnc3ccccc3c2)cc1
6.82

Which pKi is reported for this compound? CC(C)(c1ccc(CCC(=O)Nc2cnc3ccccc3c2)cc1)C1CCCCC1
7.50

Which pKi is reported for this compound? CCCCCN(C)c1ccc(CCC(=O)Nc2cnc3ccccc3c2)cc1 [Example 37]
6.75

Which pKi is reported for this compound? CC(C)=CCC[C@H](C)CCN(C)c1ccc(C(=O)Nc2cnc3ccccc3c2)cc1
7.89

Which pKi is reported for this compound? CCCn1ccc2cc(CCC(=O)Nc3cnc4ccccc4c3)ccc21
6.58

Which pKi is reported for this compound? O=C(Nc1cnc2ccccc2c1)c1ccc(N2CCCCC2)cc1
7.21

Which pKi is reported for this compound? CCCN(CCC)c1ccc(C(=O)Nc2cnc3ccccc3c2)cc1
6.66

Which pKi is reported for this compound? CCCCCNc1ccc(C(=O)Nc2cnc3ccccc3c2)cc1 [4-Pentylamino-N-quinolin-3-yl-benzamide]
6.06

Which pKi is reported for this compound? O=C(Nc1cnc2ccccc2c1)c1ccc(N2CCC(c3ccccc3)CC2)cc1
4.53

Which pKi is reported for this compound? CCC(C)(C)c1ccc(CCC(=O)Nc2cnc3ccccc3c2)s1
7.85

Which pKi is reported for this compound? CC(C)n1c(C(F)(F)F)nc2cc(C(=O)Nc3cnc4ccccc4c3)ccc21
6.44

Which pKi is reported for this compound? O=C(Nc1cnc2ccccc2c1)c1ccc(N2CC[C@@H]3CCCC[C@@H]3C2)cc1 (relative stereo)
7.34

Which pKi is reported for this compound? CCCCCN1CCc2cc(C(=O)Nc3cnc4ccccc4c3)ccc21 [Example 227]
7.62

Which pKi is reported for this compound? CCC=CCCCCCN(C)c1ccc(C(=O)Nc2cnc3ccccc3c2)cc1
7.44

Which pKi is reported for this compound? CCCCCN(C)c1ccc(CC(=O)Nc2cnc3ccccc3c2)cc1
5.87

Which pKi is reported for this compound? CCCCCCCN(C)c1cccc(C(=O)Nc2cnc3ccccc3c2)c1
6.85

Which pKi is reported for this compound? CCCCCCCN(C)c1ccc(C(=O)Nc2cnc3ccccc3c2)cn1
7.01

Which pKi is reported for this compound? CC(C)CCN(C)c1ccc(C(=O)Nc2cnc3ccccc3c2)cc1
6.26

Which pKi is reported for this compound? CC1(C)CCC(C)(C)c2cc(CCC(=O)Nc3cnc4ccccc4c3)ccc21
7.89

Which pKi is reported for this compound? Cc1cc(C(=O)Nc2cnc3ccccc3c2)ccc1N(C)CC1CCCCC1
7.17

Which pKi is reported for this compound? O=C(Nc1cnc2ccccc2c1)c1ccc(N2CC[C@@H]3CCCC[C@H]3C2)nc1 (relative stereo)
7.48

Which pKi is reported for this compound? CCC(C)c1ccc(CCC(=O)Nc2cnc3ccccc3c2)cc1 (centres unmarked)
7.86

Which pKi is reported for this compound? CC(C)(C)c1ccc(C=CC(=O)Nc2cnc3ccccc3c2)cc1
8.95

Which pKi is reported for this compound? O=C(Nc1cnc2ccccc2c1)c1ccc(N(Cc2ccccc2)Cc2ccccc2)cc1
6.36

Which pKi is reported for this compound? CCCCCCCNc1ccccc1C(=O)Nc1cnc2ccccc2c1 [2-Heptylamino-N-quinolin-3-yl-benzamide]
5.95

Which pKi is reported for this compound? CN(CCCc1ccccc1)c1ccc(C(=O)Nc2cnc3ccccc3c2)cc1
7.13

Which pKi is reported for this compound? CCCCCN(C)c1cccc(C(=O)Nc2cnc3ccccc3c2)c1
6.58

Which pKi is reported for this compound? CN(c1ccc(CCC(=O)Nc2cnc3ccccc3c2)cc1)C1CCCCC1
5.93

Which pKi is reported for this compound? CCCCCN(CCCCC)c1ccc(C(=O)Nc2cnc3ccccc3c2)cc1
6.80

Which pKi is reported for this compound? CCCCC(C)(C)c1ccc(C=CCC(=O)Nc2cnc3ccccc3c2)cc1
6.71

Which pKi is reported for this compound? CCCCCc1ccc(CC(=O)Nc2cnc3ccccc3c2)cc1
5.66

Which pKi is reported for this compound? O=C(CCc1ccc(C23CC4CCCC(CC(C4)C2)C3)cc1)Nc1cnc2ccccc2c1
6.75

Which pKi is reported for this compound? CCCCCC=CCCCN(C)c1ccc(C(=O)Nc2cnc3ccccc3c2)cc1
7.64

Which pKi is reported for this compound? CC(C)(CCc1ccccc1)c1ccc(CCC(=O)Nc2cnc3ccccc3c2)cc1
7.80

Which pKi is reported for this compound? CN(c1cccc(C(=O)Nc2cnc3ccccc3c2)c1)C1CCCCC1
7.01

Which pKi is reported for this compound? CCCCCN(CCCCC)c1ccc(CC(=O)Nc2cnc3ccccc3c2)cc1
6.29

Which pKi is reported for this compound? O=C(Nc1cnc2ccccc2c1)c1ccc(N2CCC(Cc3ccccc3)CC2)nc1
7.59

Which pKi is reported for this compound? CCCC1CCN(c2ccc(C(=O)Nc3cnc4ccccc4c3)cn2)CC1
6.93

Which pKi is reported for this compound? CN(CCc1ccccc1)c1ccc(C(=O)Nc2cnc3ccccc3c2)cn1
6.61

Which pKi is reported for this compound? CCCCCN(CCCCC)c1cccc(C(=O)Nc2cnc3ccccc3c2)c1
6.97

Where these numbers come from: patent US8394828B2
